assay.notes: Inhibition of kappa opioid receptor
reported.metric: IC50

> print(dat)
                                   molecule  measured.value
1  N#Cc1ccc2[nH]cc(CCCCN3CCN(c4ccc5oc(C(N)=O)cc5c4)CC3)c2c1 [VILAZODONE]       > 1000 nM

---

system: UniProt P61169
Sequence (P61169 whole entry): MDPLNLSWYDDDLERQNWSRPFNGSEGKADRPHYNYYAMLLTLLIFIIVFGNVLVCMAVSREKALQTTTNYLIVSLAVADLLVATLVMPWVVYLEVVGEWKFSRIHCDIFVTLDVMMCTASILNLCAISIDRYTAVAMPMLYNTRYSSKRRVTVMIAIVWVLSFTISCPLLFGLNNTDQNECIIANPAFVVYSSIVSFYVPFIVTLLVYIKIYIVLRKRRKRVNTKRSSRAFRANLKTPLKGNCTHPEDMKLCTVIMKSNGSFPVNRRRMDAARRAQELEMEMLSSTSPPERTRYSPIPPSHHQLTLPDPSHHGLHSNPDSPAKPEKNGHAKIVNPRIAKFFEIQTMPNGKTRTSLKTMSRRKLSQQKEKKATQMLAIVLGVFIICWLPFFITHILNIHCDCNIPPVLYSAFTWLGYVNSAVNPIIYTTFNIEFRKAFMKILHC
assay.notes: Displacement of [3H]spiperone from dopamine D2 receptor of rat striatal membranes
pIC50: −log10 of the molar value.
Please enter True where pIC50 is greater than or equal to 8, and False where it is lower.

> print(dat)
                          structure.notation  group
 1  N#Cc1ccc2[nH]cc(CCCCN3CCN(c4ccc5oc(=O)ccc5c4)CC3)c2c1  False
 2  N#Cc1ccc2[nH]cc(CCCCN3CCN(c4ccccc4)CC3)c2c1   True
 3  N#Cc1ccc2[nH]cc(CCCCN3CCN(c4ccc(C(N)=O)cc4)CC3)c2c1  False
 4  N#Cc1ccc2[nH]cc(CCCCN3CCN(c4ccc5nsnc5c4)CC3)c2c1  False
 5  COc1ccc(N2CCN(CCCCc3c[nH]c4ccc(C#N)cc34)CC2)cc1OC  False
 6  Clc1ccc2[nH]cc(CCCCN3CCN(c4ccc5c(c4)OCCO5)CC3)c2c1  False
 7  N#Cc1ccc2[nH]cc(CCCCN3CCN(c4ccc(O)c(C#N)c4)CC3)c2c1  False
 8  N#Cc1ccc(N2CCN(CCCCc3c[nH]c4ccc(C#N)cc34)CC2)cc1  False
 9  N#Cc1ccc(N2CCN(CCCCc3c[nH]c4ccc(F)cc34)CC2)cc1  False
10  N#Cc1cc2cc(N3CCN(CCCCc4c[nH]c5ccc(F)cc45)CC3)ccc2o1  False
11  N#Cc1ccc2[nH]cc(CCCCN3CCN(c4ccc5c(c4)OCO5)CC3)c2c1   True
12  N#Cc1ccc2[nH]cc(CCCCN3CCN(c4ccc5[nH]ccc5c4)CC3)c2c1   True
13  Fc1ccc2[nH]cc(CCCCN3CCN(c4ccc5c(c4)OCCO5)CC3)c2c1  False
14  N#Cc1ccc2[nH]cc(CCCCN3CCN(c4ccc5c(c4)OCCO5)CC3)c2c1   True
15  Oc1ccc2[nH]cc(CCCCN3CCN(c4ccc5c(c4)OCCO5)CC3)c2c1  False
16  O=c1ccc2cc(N3CCN(CCCCc4c[nH]c5ccc(F)cc45)CC3)ccc2o1  False
17  COc1ccccc1N1CCN(CCCCc2c[nH]c3ccc(C#N)cc23)CC1   True
